Task for the reader: assign each of the following compounds its reported EC50.
Target Desc: human β3 adrenergic receptor (Homo sapiens)
Construct: stably transfected with the cloned β-adrenergic receptor (β1, β2 or β3); expressed in transfected cells; host or cells: Chinese hamster ovary (CHO) cells, stably transfected
Assay Summary: Functional assay: cAMP production (LANCE TR-FRET) in CHO cells stably transfected with cloned β3 adrenergic receptor
Assay type: cell-based
Experimental Conditions: Table 3; cAMP production, CHO cells expressing human β3 AR; read-out: Human β3 functional

Guide cases for EC50, answers given:
compound="COCCC(C(=O)Nc1ccc(CC2CC[C@H]([C@H](O)c3cccnc3)N2)cc1)n1cccn1 (single isomer, unassigned) [Example 221]" property_name=EC50 measured_result="1 to 10 nM"
compound="O=C(Nc1ccc(CC2CC[C@H]([C@H](O)c3cccnc3)N2)cc1)C1CCc2scnc21 (single isomer, unassigned) [Example 191]" property_name=EC50 measured_result="11 to 100 nM"
compound="O=C(Nc1ccc(CC2CC[C@H]([C@H](O)c3cccnc3)N2)cc1)[C@H]1CCc2nnnn21 (stereo partly drawn) [Example 173]" property_name=EC50 measured_result="1 to 10 nM"
compound="Cc1nc(C(C)C(=O)Nc2ccc(CC3CC[C@H]([C@H](O)c4cccnc4)N3)cc2)cs1 (single isomer, unassigned) [Example 102]" property_name=EC50 measured_result="101 to 1000 nM"
compound="O=C(Nc1ccc(CC2CC[C@H]([C@H](O)c3cccnc3)N2)cc1)C1CCc2sc(CO)nc21 (single isomer, unassigned) [Example 189]" property_name=EC50 measured_result="11 to 100 nM"

Could you report EC50 for every entry in the following list?
1. Cc1[nH]nc2c1CCC2C(=O)Nc1ccc(CC2CC[C@H]([C@H](O)c3cccnc3)N2)cc1 (single isomer, unassigned) [Example 154]
2. O=C1CC[C@@H](C(=O)Nc2ccc(CC3CC[C@H]([C@H](O)c4cccnc4)N3)cc2)N1 (single isomer, unassigned) [Example 197]
3. Cc1nnc(C(C)C(=O)Nc2ccc(CC3CC[C@H]([C@H](O)c4cccnc4)N3)cc2)[nH]1 (single isomer, unassigned) [Example 153]
4. CC(C(=O)Nc1ccc(CC2CC[C@H]([C@H](O)c3cccnc3)N2)cc1)c1csc(N)n1 (single isomer, unassigned) [Example 106]
5. O=C(O)c1nc2c(s1)CCC2C(=O)Nc1ccc(CC2CC[C@H]([C@H](O)c3cccnc3)N2)cc1 (single isomer, unassigned) [Example 137]
6. Cc1nc(C(C)C(=O)Nc2ccc(CC3CC[C@H]([C@H](O)c4cccnc4)N3)cc2)c(C)s1 (single isomer, unassigned) [Example 104]
7. O=C(Nc1ccc(CC2CC[C@H]([C@H](O)c3cccnc3)N2)cc1)C1CCc2scnc21 (single isomer, unassigned) [Example 190]

1. 1 to 10 nM
2. 101 to 1000 nM
3. 11 to 100 nM
4. 1 to 10 nM
5. 1 to 10 nM
6. 1000 to 3000 nM
7. < 1 nM

====

Target Desc: human β3 adrenergic receptor (Homo sapiens)
Construct: stably transfected with the cloned β-adrenergic receptor (β1, β2 or β3); expressed in transfected cells; host or cells: Chinese hamster ovary (CHO) cells, stably transfected
Assay Summary: Functional assay: cAMP production (LANCE TR-FRET) in CHO cells stably transfected with cloned β3 adrenergic receptor
Format: cell-based
Experimental Conditions: Table 3; cAMP production, CHO cells expressing human β3 AR; read-out: Human β3 functional
pEC50: −log10 of the molar value.
Property Name: pEC50

Guide cases for pEC50, answers given:
compound="Cc1nnc(C(C)C(=O)Nc2ccc(CC3CC[C@H]([C@H](O)c4cccnc4)N3)cc2)[nH]1 (single isomer, unassigned) [Example 152]" property_name=pEC50 measured_result="8.00 to 9.00"
compound="CC(C(=O)Nc1ccc(CC2CC[C@H]([C@H](O)c3cccnc3)N2)cc1)n1ccnn1 (single isomer, unassigned) [Example 149]" property_name=pEC50 measured_result="8.00 to 9.00"
compound="O=C(Nc1ccc(CC2CC[C@H]([C@H](O)c3cccnc3)N2)cc1)C1CCc2nccc(=O)n21 (single isomer, unassigned) [Example 161]" property_name=pEC50 measured_result="8.00 to 9.00"

Could you report pEC50 for every entry in the following list?
1. Cc1nnc2c(C(C)C(=O)Nc3ccc(CC4CC[C@H]([C@H](O)c5cccnc5)N4)cc3)cccn12 (single isomer, unassigned) [Example 216]
2. Nc1nc2c(s1)CCC2C(=O)Nc1ccc(CC2CC[C@H]([C@H](O)c3cccnc3)N2)cc1 (single isomer, unassigned) [Example 113]
3. COC(=O)c1cn(C(C)C(=O)Nc2ccc(CC3CC[C@H]([C@H](O)c4cccnc4)N3)cc2)nn1 (single isomer, unassigned) [Example 151]
4. CC(C(=O)Nc1ccc(CC2CC[C@H]([C@H](O)c3cccnc3)N2)cc1)n1cncn1 (single isomer, unassigned)
5. CC(C(=O)Nc1ccc(CC2CC[C@H]([C@H](O)c3cccnc3)N2)cc1)c1nnn(C)n1 (single isomer, unassigned) [Example 180]
6. CC(C(=O)Nc1ccc(CC2CC[C@H]([C@H](O)c3cccnc3)N2)cc1)n1cc(C(=O)O)nn1 (single isomer, unassigned) [Example 198]
7. CC(C(=O)Nc1ccc(CC2CC[C@H]([C@H](O)c3cccnc3)N2)cc1)n1nncc1C(=O)O (single isomer, unassigned) [Example 207]

1: 7.00 to 7.96; 2: > 9.00; 3: 7.00 to 7.96; 4: 8.00 to 9.00; 5: 7.00 to 7.96; 6: 7.00 to 7.96; 7: 7.00 to 7.96

Could you report pEC50 for every entry in the following list?
1. CC(F)(C(=O)Nc1ccc(CC2CC[C@H]([C@H](O)c3cccnc3)N2)cc1)c1ccccn1 (single isomer, unassigned) [Example 146]
2. CC(C(=O)Nc1ccc(CC2CC[C@H]([C@H](O)c3cccnc3)N2)cc1)n1cccn1 (single isomer, unassigned) [Example 97]

["7.00 to 7.96", "7.00 to 7.96"]

====

Task for the reader: assign each of the following compounds its reported EC50.
Target Desc: human β3 adrenergic receptor (Homo sapiens, UniProt P13945)
Construct: stably transfected with the cloned β-adrenergic receptor (β1, β2 or β3); expressed in transfected cells; host or cells: Chinese hamster ovary (CHO) cells, stably transfected
Sequence (P13945 whole entry): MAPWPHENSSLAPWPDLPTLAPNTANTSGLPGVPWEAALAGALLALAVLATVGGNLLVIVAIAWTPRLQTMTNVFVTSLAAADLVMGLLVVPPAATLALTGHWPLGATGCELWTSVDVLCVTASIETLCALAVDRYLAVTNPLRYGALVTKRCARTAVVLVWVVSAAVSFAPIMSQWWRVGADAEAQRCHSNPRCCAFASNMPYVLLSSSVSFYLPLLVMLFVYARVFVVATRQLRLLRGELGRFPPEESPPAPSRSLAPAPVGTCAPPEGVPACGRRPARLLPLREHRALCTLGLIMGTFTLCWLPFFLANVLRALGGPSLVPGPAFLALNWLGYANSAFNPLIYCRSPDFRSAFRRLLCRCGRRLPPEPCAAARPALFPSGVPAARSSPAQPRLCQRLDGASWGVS
Assay Summary: Functional assay: cAMP production (LANCE TR-FRET) in CHO cells stably transfected with cloned β3 adrenergic receptor
Format: cell-based
Experimental Conditions: Table 6; human β3 functional activity given as ranges; read-out: Human β3 functional

compound="CC(NC(=O)c1ccccc1)C(=O)Nc1ccc(C[C@@H]2CC[C@H]([C@H](O)c3cccnc3)N2)cc1 (stereo partly drawn)" property_name=EC50 measured_result="< 1 nM"
compound="CC(NC(=O)c1ccc(F)cc1)C(=O)Nc1ccc(C[C@@H]2CC[C@H]([C@H](O)c3cccnc3)N2)cc1 (stereo partly drawn)" property_name=EC50 measured_result="1 to 10 nM"
compound="CC(C(=O)Nc1ccc(C[C@@H]2CC[C@H]([C@H](O)c3cccnc3)N2)cc1)N(C)C(=O)c1ccccc1F (stereo partly drawn) [Example 248]" property_name=EC50 measured_result="11 to 100 nM"
compound="CC(C(=O)Nc1ccc(C[C@@H]2CC[C@H]([C@H](O)c3cccnc3)N2)cc1)N(C)C(=O)c1ccccc1F (stereo partly drawn) [Example 261]" property_name=EC50 measured_result="11 to 100 nM"
compound="CC(NC(=O)c1cscn1)C(=O)Nc1ccc(C[C@@H]2CC[C@H]([C@H](O)c3cccnc3)N2)cc1 (stereo partly drawn)" property_name=EC50 measured_result="1 to 10 nM"

Could you report EC50 for every entry in the following list?
1. CC(NS(=O)(=O)Cc1ccccc1)C(=O)Nc1ccc(C[C@@H]2CC[C@H]([C@H](O)c3cccnc3)N2)cc1 (stereo partly drawn)
2. CC(NC(=O)c1nc[nH]n1)C(=O)Nc1ccc(C[C@@H]2CC[C@H]([C@H](O)c3cccnc3)N2)cc1 (stereo partly drawn)

1: 11 to 100 nM; 2: 1 to 10 nM

Could you report EC50 for every entry in the following list?
1. CC(N)C(=O)Nc1ccc(C[C@@H]2CC[C@H]([C@H](O)c3cccnc3)N2)cc1 (stereo partly drawn)
2. CC(NC(=O)c1cccc(F)c1F)C(=O)Nc1ccc(C[C@@H]2CC[C@H]([C@H](O)c3cccnc3)N2)cc1 (stereo partly drawn)
3. CC(NC(=O)c1cnccn1)C(=O)Nc1ccc(C[C@@H]2CC[C@H]([C@H](O)c3cccnc3)N2)cc1 (stereo partly drawn)

1: 11 to 100 nM; 2: < 1 nM; 3: 11 to 100 nM

Could you report EC50 for every entry in the following list?
1. CC(C(=O)Nc1ccc(C[C@@H]2CC[C@H]([C@H](O)c3cccnc3)N2)cc1)N(C)C(=O)c1ccccn1 (stereo partly drawn)
2. CC(NS(=O)(=O)c1ccccc1)C(=O)Nc1ccc(C[C@@H]2CC[C@H]([C@H](O)c3cccnc3)N2)cc1 (stereo partly drawn)
3. CC(=O)NC(C)C(=O)Nc1ccc(C[C@@H]2CC[C@H]([C@H](O)c3cccnc3)N2)cc1 (stereo partly drawn)
4. CC(NC(=O)c1c(F)cccc1F)C(=O)Nc1ccc(C[C@@H]2CC[C@H]([C@H](O)c3cccnc3)N2)cc1 (stereo partly drawn)
5. CC(NS(=O)(=O)c1ccccc1F)C(=O)Nc1ccc(C[C@@H]2CC[C@H]([C@H](O)c3cccnc3)N2)cc1 (stereo partly drawn)

1: 101 to 1000 nM; 2: 11 to 100 nM; 3: 11 to 100 nM; 4: < 1 nM; 5: 11 to 100 nM
